# procedure_text: Permeability (transport study) across ECV304 monoculture model
# conditions_used: human
assay_metric: Papp at 60 min (×10⁻⁶ cm/s)

{"columns": ["molecule", "reading_unit", "Papp at 60 min"],
 "data": [
  ["CC(C)NCC(O)COc1cccc2ccccc12 (stereo not shown) [Propranolol, propranolol]", "×10⁻⁶ cm/s", 28.4]
]}

A. COC(=O)c1ccccc1-c1c2ccc(=N)cc-2oc2cc(N)ccc12 [R123, Rhodamine 123]
B. C=C[C@H]1C[N@@]2CC[C@H]1C[C@@H]2[C@@H](O)c1ccnc2ccc(OC)cc12 [Quinidine, quinidine]
Which item exceeds the other in Papp at 60 min, A or B ? // respond with label for picked entry B

Just for reference, paper PMC5653355 is where these values come from.
